Data origin, for the record: PubChem BioAssay (EPA / NIEHS)

PROCEDURE_TEXT: Tanguay_ZF_120hpf_TR_legacy: (Legacy) Oregon State University Tanguay Lab 120 Hour Post-fertilization zebrafish Assay for Touch Response (AID 2283667)
Records with an inconclusive call do not appear. The source made the active and inactive calls. How the source made its calls: active means hit-call score of the fitted dose curve at least 0.9, where 1 is the maximum; inconclusive means response in the unintended direction; inactive means score below 0.9.
Your response should consist of one outcome taken from active, inactive

Would you please look over these solved cases?
[
  {
    "COMPOUND": "CCC(=C(c1ccc(O)cc1)c1ccc(OCCN(C)C)cc1)c1ccccc1",
    "CAT": "inactive"
  },
  {
    "COMPOUND": "CCCCCCCC(=O)O",
    "CAT": "inactive"
  }
]

Challenge: For this compound, state the assay outcome: "CC(C)(C)c1cc(C(C)(C)C)c(O)c(C(C)(C)C)c1"
Response given: inactive

Challenge: Please give the result for "O=C(OCCOCCOC(=O)c1ccccc1)c1ccccc1" too.
Response given: inactive

Challenge: Please give the result for "CN(C)C=O" too.
Response given: inactive

* * *

PROCEDURE_TEXT: ATG_E_Box_CIS: Attagene CIS-FACTORIAL HepG2 Assay for human Enhancer Box (E-box) (AID 2282936)
EXPERIMENTAL_CONDITIONS: HepG2 E-box cis-reporter transcription, actives raise or lower the signal
The source made the active and inactive calls. Rule for the calls: active = hit-call score of the fitted dose curve at least 0.9, where 1 is the maximum; inactive = score below 0.9.
PROPERTY_MEASURED: outcome

Please review the following examples before continuing.
[
  {
    "COMPOUND": "CC(C)(C)c1ccc(O)c(C(C)(C)C)c1",
    "outcome": "inactive"
  },
  {
    "COMPOUND": "CCCCCCCCCCCCc1ccccc1S(=O)(=O)O",
    "outcome": "inactive"
  },
  {
    "COMPOUND": "Cc1oc(-c2ccccc2)nc1CCOc1ccc(C[C@H](Nc2ccccc2C(=O)c2ccccc2)C(=O)O)cc1",
    "outcome": "inactive"
  },
  {
    "COMPOUND": "C#C[C@]1(O)CC[C@H]2[C@@H]3CCC4=CC(=O)CC[C@@H]4[C@H]3CC[C@@]21C",
    "outcome": "inactive"
  }
]

Challenge: Query: outcome; subject: CCc1ccc(CCOc2ccc(CC3SC(=O)NC3=O)cc2)nc1 (stereo unspecified)
Response given: inactive

Challenge: Please give the result for "NC(=O)N(O)[C@@H]1C=C[C@H](Oc2cccc(Oc3ccc(F)cc3)c2)C1" too.
Response given: inactive

* * *

PROCEDURE_TEXT: BSK_hDFCGF_Proliferation: Cell Proliferation Assessment in the BioMAP Diversity Plus: hDFCGF Assay (AID 2283059);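 further: curves fitted for both rise and fall of signal versus DMSO baseline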
EXPERIMENTAL_CONDITIONS: primary human foreskin fibroblasts
Activity calls are given as the source filed them. Rule for the calls: active = hit-call score of the fitted dose curve at least 0.9, where 1 is the maximum; inactive = score below 0.9.
Your response should consist of one outcome taken from t = active, f = inactive

Would you please look over these solved cases?
[
  {
    "COMPOUND": "CC(=O)CC(C)(C)O",
    "CAT": "f"
  },
  {
    "COMPOUND": "CCCOc1sc(C(=O)N2CCC(c3cc(CN)ccc3F)CC2)c(C)c1Br",
    "CAT": "t"
  },
  {
    "COMPOUND": "Cc1cc(C)c(O)c(C)c1",
    "CAT": "f"
  },
  {
    "COMPOUND": "CC(C)CCCCCCOC(=O)CCCCC(=O)OCCCCCCC(C)C",
    "CAT": "f"
  },
  {
    "COMPOUND": "O=[N+]([O-])c1ccc(O)cc1",
    "CAT": "f"
  }
]

Challenge: For this compound, state the assay outcome: CCC(C)(C)C1CCC(O)CC1 (configuration not stated)
Response given: f

Challenge: Please give the result for N#C[C@@H]1CC(F)(F)CN1C(=O)CNC1CC2CCC(C1)N2c1ncccn1 (some centres not stated) too.
Response given: f

Challenge: Please give the result for "CN1CCN(c2ccccc2/C=C2\SCCN(c3ccc(Cl)c(Cl)c3)C2=O)CC1" too.
Response given: t

Challenge: Please give the result for "Cc1oc(-c2ccccc2)nc1CCOc1ccc(C[C@H](Nc2ccccc2C(=O)c2ccccc2)C(=O)O)cc1" too.
Response given: t

Challenge: Please give the result for "Nc1cccc2c(N)cccc12" too.
Response given: t

Challenge: Please give the result for "ClC1=C(Cl)C(Cl)(Cl)C(Cl)=C1Cl" too.
Response given: t

Challenge: Please give the result for "CC(C)(C)c1cc(C(C)(C)C)c(O)c(C(C)(C)C)c1" too.
Response given: t
